- Tested on: Bacillus subtilis PCI 219
- assayText: antimicrobial activity, serial dilution method on agar plate
- Assay type: cell-based
- statedConditions: PCI219, read-out: Minimum Inhibitory Concentration, inoculum 1 × 10^6 cells/ml
For each entry below, report its MIC value.
Give the value in µg/mL but do not write µg/mL after it.

stdin: Assign MIC to the following record: CC1CCc2c(N3CCNCC3)ccc3c(=O)c(C(=O)O)cn1c23 (stereo not shown)
stdout: 0.8

stdin: // fetch MIC given entry "O=C(O)c1cn2c3c(c(N4CCNCC4)ccc3c1=O)CCC2"
stdout: 12.5

stdin: Please give measured MIC of the following entry: CC1Cc2c(N3CCNCC3)ccc3c(=O)c(C(=O)O)cn1c23 (stereo not shown)
stdout: 3.1

stdin: Read off the recorded MIC for "CCn1cc(C(=O)O)c(=O)c2ccc(C)nc21"
stdout: 3.1

====

Please go through the items and note down their MIC.
- System: Klebsiella pneumoniae
- assayText: antimicrobial activity, serial dilution method on agar plate
- Type: cell-based
- statedConditions: inoculum 1 × 10^8 cells/ml, read-out: Minimum Inhibitory Concentration
Put down the number, then write its unit next to it.

stdin: Please give the documented MIC of "Cc1ccc(S(=O)(=O)N2CCN(c3ccc4c(=O)c(C(=O)O)cn5c4c3CCC5)CC2)cc1"
stdout: 3.1 µg/mL

stdin: Return reported MIC. Input compound: C#CCN1CCN(c2c(Cl)cc3c(=O)c(C(=O)O)cn4c3c2CCC4C)CC1 (stereo not drawn)
stdout: 0.78 µg/mL

stdin: Specify measured MIC for "CN1CCN(c2ccc3c(=O)c(C(=O)O)cn4c3c2CCC4)CC1" .
stdout: 6.3 µg/mL

stdin: Using known records, supply MIC for COc1ccc(CN2CCN(c3c(Cl)cc4c(=O)c(C(=O)O)cn5c4c3CCC5C)CC2)cc1 (stereo not drawn)
stdout: 0.78 µg/mL

stdin: Please report MIC for the following compound: "O=CN1CCN(c2ccc3c(=O)c(C(=O)O)cn4c3c2CCC4)CC1"
stdout: 3.1 µg/mL

stdin: Output MIC of CC1Cc2c(N3CCN(C)CC3)c(Cl)cc3c(=O)c(C(=O)O)cn1c23 (stereo not drawn)
stdout: 0.2 µg/mL

====

I'd be grateful if you could share measured MIC for these entries.
- Tested on: Aeromonas hydrophila IFO 12981
- assayText: antimicrobial activity on bacteria which cause infectious diseases in fish
- Format: cell-based
- statedConditions: IFO12981, inoculum 10^8, read-out: Minimum Inhibitory Concentration
Give the number first and the unit second.

stdin: Retrieve MIC on Aeromonas hydrophila IFO 12981; query "CCn1cc(C(=O)O)c(=O)c2ccc(C)nc21"
stdout: 0.4 µg/mL

stdin: Write down measured MIC (Aeromonas hydrophila IFO 12981) for this compound. "O=C(O)c1cn2c3c(c(N4CCNCC4)ccc3c1=O)CCC2"
stdout: 0.8 µg/mL

stdin: Report MIC under test system Aeromonas hydrophila IFO 12981 for CC1Cc2c(N3CCNCC3)ccc3c(=O)c(C(=O)O)cn1c23 (stereo not shown) .
stdout: 0.4 µg/mL

stdin: Fetch value of MIC on Aeromonas hydrophila IFO 12981 for CC1CCc2c(N3CCNCC3)ccc3c(=O)c(C(=O)O)cn1c23 (stereo not shown) .
stdout: 0.2 µg/mL

====

- Tested on: Yersinia enterocolitica 0-3
- assayText: antimicrobial activity, serial dilution method on agar plate
- Type: cell-based
- statedConditions: Yersinia enterocolitica, 03, read-out: Minimum Inhibitory Concentration, inoculum 1 × 10^8 cells/ml
testReadout: MIC (µg/mL)
Quick note: give the figure in µg/mL, leave out the unit.

stdin: Consider the compound "O=C(O)c1cn2c3c(c(N4CCNCC4)ccc3c1=O)CCC2" . State its measured MIC.
stdout: 12.5

stdin: Identify measured MIC corresponding to CC1CCc2c(N3CCNCC3)ccc3c(=O)c(C(=O)O)cn1c23 (stereo not shown)
stdout: 3.1

stdin: Quickly give me recorded MIC for "CCn1cc(C(=O)O)c(=O)c2ccc(C)nc21"
stdout: 12.5

stdin: Specify MIC for CC1Cc2c(N3CCNCC3)ccc3c(=O)c(C(=O)O)cn1c23 (stereo not shown) and stop.
stdout: 1.6

====

- System: Bacillus subtilis PCI 219
- assayText: antimicrobial activity, serial dilution method on agar plate
- Assay type: cell-based
- statedConditions: PCI219, read-out: Minimum Inhibitory Concentration, inoculum 1 × 10^8 cells/ml
Give MIC for every item shown.
The response must be a number in µg/mL with no trailing unit.

stdin: Provide measured MIC value, entry: "CCn1cc(C(=O)O)c(=O)c2ccc(C)nc21"
stdout: 6.3

stdin: Quickly give me recorded MIC for "O=C(O)c1cn2c3c(c(N4CCNCC4)ccc3c1=O)CCC2"
stdout: 12.5

stdin: Consider the compound CC1Cc2c(N3CCNCC3)ccc3c(=O)c(C(=O)O)cn1c23 (stereo not shown) . State its measured MIC.
stdout: 3.1

stdin: Complete the entry with MIC for CC1CCc2c(N3CCNCC3)ccc3c(=O)c(C(=O)O)cn1c23 (stereo not shown)
stdout: 0.8

====

- Test system: Aeromonas salmonicida IFO 12718
- assayText: antimicrobial activity on bacteria which cause infectious diseases in fish
- Type: cell-based
- statedConditions: IFO12718, inoculum 10^6, read-out: Minimum Inhibitory Concentration
Can you tell me MIC for the items I'm about to list?
I only need the number, in µg/mL, no unit after it.

stdin: For CC1CCc2c(N3CCNCC3)ccc3c(=O)c(C(=O)O)cn1c23 (stereo not shown) , write its MIC.
stdout: 0.2

stdin: Report MIC, nothing else, for this compound: "O=C(O)c1cn2c3c(c(N4CCNCC4)ccc3c1=O)CCC2"
stdout: 0.4

stdin: Please report MIC for the following compound: "CCn1cc(C(=O)O)c(=O)c2ccc(C)nc21"
stdout: 0.8

stdin: For the compound CC1Cc2c(N3CCNCC3)ccc3c(=O)c(C(=O)O)cn1c23 (stereo not shown) , give its measured MIC value.
stdout: 0.4

====

For each record, write down the corresponding MIC.
- Tested on: Streptococcus pyogenes IID S-23
- assayText: antimicrobial activity, serial dilution method on agar plate
- Format: cell-based
- statedConditions: IIDS23, inoculum 1 × 10^8 cells/ml, read-out: Minimum Inhibitory Concentration
Record the value in µg/mL, omitting the unit from your answer.

stdin: Supply MIC value. Item: CC1Cc2c(N3CCN(C)CC3)c(Cl)cc3c(=O)c(C(=O)O)cn1c23 (stereo not drawn) [Compound Z]
stdout: 12.5

stdin: Note MIC for the compound shown: CC1CCc2c(N3CCN(C(=O)C(F)(F)F)CC3)c(Cl)cc3c(=O)c(C(=O)O)cn1c23 (stereo not drawn) [b]
stdout: 6.25

stdin: Tell me MIC reported for CC1CCc2c(N3CCN(C=O)CC3)c(Cl)cc3c(=O)c(C(=O)O)cn1c23 (stereo not drawn) [Compound V]
stdout: 3.1

stdin: Quick one: give measured MIC for CC1CCc2c(N3CCN(C)CC3)c(Cl)cc3c(=O)c(C(=O)O)cn1c23 (stereo not drawn) [Compound U]
stdout: 3.1

stdin: Determine from records and report MIC for C=CCN1CCN(c2c(Cl)cc3c(=O)c(C(=O)O)cn4c3c2CCC4C)CC1 (stereo not drawn) [h]
stdout: 3.13

stdin: Respond only with MIC recorded for CC1CCc2c(N3CCN(C(=O)C(F)(F)C(F)(F)F)CC3)c(Cl)cc3c(=O)c(C(=O)O)cn1c23 (stereo not drawn) [d]
stdout: 12.5

stdin: Please look at this compound and report its MIC: CC1CCc2c(N3CCN(CCO)CC3)c(F)cc3c(=O)c(C(=O)O)cn1c23 (stereo not drawn) [f]
stdout: 3.13

stdin: Report measured MIC; entry is CC1CCc2c(N3CCN(C)CC3)c(F)cc3c(=O)c(C(=O)O)cn1c23 (stereo not drawn) [Compound W]
stdout: 1.6

====

- assayText: acute toxicity by intravenous administration in mice
- statedConditions: mouse, in vivo, i.v., mice not fed for 12 hours
- Protocol: The acute toxicity of the compounds of this invention having the formula (I) was determined by intravenous administration (i.v.) in mice which had not been fed for 12 hours prior to the test. LD50 values (50% lethal dose) obtained are set forth below: In the same manner as above, LD50 values were determined for all the other test compounds and the LD50 values obtained were at least 500 mg/kg.
testReadout: LD50 (mg/kg)
Please state the figure in mg/kg; there is no need to write the unit.

stdin: Look up and report measured LD50 for this entry: "O=C(O)c1cn2c3c(c(N4CCNCC4)ccc3c1=O)CCC2"
stdout: 1100

====

Consider the following molecules; for each one, report its MIC.
- System: Serattia marcescens IFO 12648
- assayText: antimicrobial activity, serial dilution method on agar plate
- Format: cell-based
- statedConditions: read-out: Minimum Inhibitory Concentration, inoculum 1 × 10^6 cells/ml
Counter-ions that a name gives are not always drawn.
Hey, just the number and the unit after it is fine.

stdin: GET MIC where system = Serattia marcescens IFO 12648 and item = "CCn1cc(C(=O)O)c(=O)c2ccc(C)nc21"
stdout: 3.1 µg/mL

stdin: // fetch MIC; item: CC1CCc2c(N3CCNCC3)ccc3c(=O)c(C(=O)O)cn1c23 (stereo not drawn) ; system: Serattia marcescens IFO 12648
stdout: 1.6 µg/mL

stdin: Write down the reported MIC (system: Serattia marcescens IFO 12648) of CC1CCc2c(N3CCNCC3)c(Cl)cc3c(=O)c(C(=O)O)cn1c23 (stereo not drawn) [Compound T, hydrochloride hydrate]
stdout: 1.6 µg/mL

stdin: Supply MIC measured with Serattia marcescens IFO 12648 for CC1Cc2c(N3CCNCC3)c(Cl)cc3c(=O)c(C(=O)O)cn1c23 (stereo not drawn) .
stdout: 0.4 µg/mL

stdin: Quote MIC with test system Serattia marcescens IFO 12648 for "O=C(O)c1cn2c3c(c(N4CCNCC4)ccc3c1=O)CCC2"
stdout: 3.1 µg/mL

stdin: With Serattia marcescens IFO 12648 as the test system, provide measured MIC for this molecule: CC1Cc2c(N3CCNCC3)ccc3c(=O)c(C(=O)O)cn1c23 (stereo not drawn)
stdout: 1.6 µg/mL
